Ref: patent US20210388087A1

Target: T1, Human CD137 ECD (human)
T1 construct: also called 4-1BB
T1 sequence (chain, as listed by the source limits assumed): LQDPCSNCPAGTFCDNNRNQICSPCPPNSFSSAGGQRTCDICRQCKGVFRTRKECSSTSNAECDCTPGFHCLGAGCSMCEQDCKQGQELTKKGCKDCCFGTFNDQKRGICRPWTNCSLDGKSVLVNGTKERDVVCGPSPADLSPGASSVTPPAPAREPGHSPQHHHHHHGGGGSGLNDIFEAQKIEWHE
Experiment: single mutant vs template dBBDu183H
Measured fold change of affinity accompanies every entry in the list below.
Write the answer as a number in fold, unit excluded.

Use the examples below as a reference point.
{"columns": ["binder", "dataValue"],
 "data": [
  ["H183/L072 VH A60S (antibody, name in Kabat numbering, V domains shown) VH: QVQLVESGGGLVQPGRSLRLSCAASGFTFSNAWMHWVRQAPGKGLEWVAQIKDKGNAYAAYYSPSVKGRFTISRDDSKNSIYLQMNSLKTEDTAVYYCHYVHYASASTVLPAFGVDAWGQGTTVTVSS VL: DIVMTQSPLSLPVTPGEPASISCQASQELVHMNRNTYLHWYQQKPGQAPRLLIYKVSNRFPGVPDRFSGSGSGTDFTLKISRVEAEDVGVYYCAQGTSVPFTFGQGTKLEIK", 1],
  ["H183/L072 VH Y58L (antibody, name in Kabat numbering, V domains shown) VH: QVQLVESGGGLVQPGRSLRLSCAASGFTFSNAWMHWVRQAPGKGLEWVAQIKDKGNAYAALYAPSVKGRFTISRDDSKNSIYLQMNSLKTEDTAVYYCHYVHYASASTVLPAFGVDAWGQGTTVTVSS VL: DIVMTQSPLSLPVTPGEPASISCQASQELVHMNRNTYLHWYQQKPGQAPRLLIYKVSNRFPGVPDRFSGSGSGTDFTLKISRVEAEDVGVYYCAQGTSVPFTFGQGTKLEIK", 0.4],
  ["H183/L072 VH A102I (antibody, name in Kabat numbering, V domains shown) VH: QVQLVESGGGLVQPGRSLRLSCAASGFTFSNAWMHWVRQAPGKGLEWVAQIKDKGNAYAAYYAPSVKGRFTISRDDSKNSIYLQMNSLKTEDTAVYYCHYVHYASASTVLPAFGVDIWGQGTTVTVSS VL: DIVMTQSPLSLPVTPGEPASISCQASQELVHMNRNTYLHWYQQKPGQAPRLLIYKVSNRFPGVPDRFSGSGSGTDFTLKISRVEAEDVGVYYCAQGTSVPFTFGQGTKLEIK", 0]
]}

Report fold change of affinity, nothing else, for this binder: H183/L072 VH S100aA (antibody, name in Kabat numbering, V domains shown) VH: QVQLVESGGGLVQPGRSLRLSCAASGFTFSNAWMHWVRQAPGKGLEWVAQIKDKGNAYAAYYAPSVKGRFTISRDDSKNSIYLQMNSLKTEDTAVYYCHYVHYASAATVLPAFGVDAWGQGTTVTVSS VL: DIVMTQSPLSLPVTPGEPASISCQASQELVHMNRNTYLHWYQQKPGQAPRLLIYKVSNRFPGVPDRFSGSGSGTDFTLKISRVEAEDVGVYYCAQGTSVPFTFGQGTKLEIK
0

Give the measured fold change of affinity for H183/L072 VH H96L (antibody, name in Kabat numbering, V domains shown) VH: QVQLVESGGGLVQPGRSLRLSCAASGFTFSNAWMHWVRQAPGKGLEWVAQIKDKGNAYAAYYAPSVKGRFTISRDDSKNSIYLQMNSLKTEDTAVYYCHYVLYASASTVLPAFGVDAWGQGTTVTVSS VL: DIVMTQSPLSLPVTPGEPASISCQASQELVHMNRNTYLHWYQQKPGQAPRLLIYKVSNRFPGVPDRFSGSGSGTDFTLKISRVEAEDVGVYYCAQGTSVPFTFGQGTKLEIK
0.8
